In this section we review reported MBRC (CV at 595 nm) LD50 values for a set of compounds.
Test system: P. aeruginosa PAO1
Format: cell-based
measurement.parameters: PAO1
Residues, ends and D or L forms follow the SMILES beside them.

Study these solved cases before continuing.
CC(C)C[C@H](NC(=O)[C@H](Cc1ccccc1)NC(=O)[C@H](C)NC(=O)[C@H](Cc1c[nH]c2ccccc12)NC(=O)[C@H](Cc1c[nH]c2ccccc12)NC(=O)[C@H](Cc1c[nH]c2ccccc12)NC(=O)[C@H](C)NC(=O)[C@H](Cc1ccccc1)NC(=O)[C@H](CCCCN)NC(=O)[C@H](CCCCN)NC(=O)[C@@H](N)C(C)C)C(=O)N[C@@H](CCCCN)C(=O)N[C@@H](CCCCN)C(N)=O [Tritrp-P59A-Lys] (H-VKKFAWWWAFLKK-NH2)    64 µmol/L
CC(C)C[C@H](NC(=O)[C@H](Cc1ccccc1)NC(=O)[C@@H]1CCCN1C(=O)[C@H](Cc1c[nH]c2ccccc12)NC(=O)[C@H](Cc1c[nH]c2ccccc12)NC(=O)[C@H](Cc1c[nH]c2ccccc12)NC(=O)[C@@H]1CCCN1C(=O)[C@H](Cc1ccccc1)NC(=O)[C@H](CCCNC(=N)N)NC(=O)[C@H](CCCNC(=N)N)NC(=O)[C@@H](N)C(C)C)C(=O)N[C@@H](CCCNC(=N)N)C(=O)N[C@@H](CCCNC(=N)N)C(N)=O    32 µmol/L
CC(C)C[C@H](NC(=O)[C@H](Cc1ccccc1)NC(=O)[C@@H]1CCCN1C(=O)[C@H](Cc1ccc(O)cc1)NC(=O)[C@H](Cc1ccc(O)cc1)NC(=O)[C@H](Cc1ccc(O)cc1)NC(=O)[C@@H]1CCCN1C(=O)[C@H](Cc1ccccc1)NC(=O)[C@H](CCCNC(=N)N)NC(=O)[C@H](CCCNC(=N)N)NC(=O)[C@@H](N)C(C)C)C(=O)N[C@@H](CCCNC(=N)N)C(=O)N[C@@H](CCCNC(=N)N)C(N)=O [Tritrp-W678Y] (H-VRRFPYYYPFLRR-NH2)    128 µmol/L

Here's the next entry for you.
[ask] Query: MBRC (CV at 595 nm) LD50; subject: CC(C)C[C@H](NC(=O)[C@H](Cc1ccccc1)NC(=O)[C@@H]1CCCN1C(=O)[C@H](Cc1ccccc1)NC(=O)[C@H](Cc1ccccc1)NC(=O)[C@H](Cc1ccccc1)NC(=O)[C@@H]1CCCN1C(=O)[C@H](Cc1ccccc1)NC(=O)[C@H](CCCNC(=N)N)NC(=O)[C@H](CCCNC(=N)N)NC(=O)[C@@H](N)C(C)C)C(=O)N[C@@H](CCCNC(=N)N)C(=O)N[C@@H](CCCNC(=N)N)C(N)=O [Tritrp-W678F] (H-VRRFPFFFPFLRR-NH2)
[reply] 128 µmol/L

----------
Tested on: P. aeruginosa PAO1
Type: cell-based
measurement.parameters: PAO1
Residues, ends and D or L forms follow the SMILES beside them.
attribute.measured: MBRC (CV at 595 nm) LD50 (µmol/L)
State the answer as a number, implicitly in µmol/L.

Some solved cases for reference:
CC(C)C[C@H](NC(=O)[C@H](Cc1ccccc1)NC(=O)[C@@H]1CCCN1C(=O)[C@H](Cc1c[nH]c2ccccc12)NC(=O)[C@H](Cc1c[nH]c2ccccc12)NC(=O)[C@H](Cc1c[nH]c2ccccc12)NC(=O)[C@H](C)NC(=O)[C@H](Cc1ccccc1)NC(=O)[C@H](CCCNC(=N)N)NC(=O)[C@H](CCCNC(=N)N)NC(=O)[C@@H](N)C(C)C)C(=O)N[C@@H](CCCNC(=N)N)C(=O)N[C@@H](CCCNC(=N)N)C(N)=O [Tritrp-P5A] (H-VRRFAWWWPFLRR-NH2)    32
CC(C)C[C@H](NC(=O)[C@H](Cc1ccccc1)NC(=O)[C@@H]1CCCN1C(=O)[C@H](Cc1c[nH]c2ccccc12)NC(=O)[C@H](Cc1c[nH]c2ccccc12)NC(=O)[C@H](Cc1c[nH]c2ccccc12)NC(=O)[C@@H]1CCCN1C(=O)[C@H](Cc1ccccc1)NC(=O)[C@H](CCCCN)NC(=O)[C@H](CCCCN)NC(=O)[C@@H](N)C(C)C)C(=O)N[C@@H](CCCCN)C(=O)N[C@@H](CCCCN)C(N)=O [Tritrp-Lys] (H-VKKFPWWWPFLKK-NH2)    64
CC(C)C[C@H](NC(=O)[C@H](Cc1ccccc1)NC(=O)[C@H](C)NC(=O)[C@H](Cc1c[nH]c2ccccc12)NC(=O)[C@H](Cc1c[nH]c2ccccc12)NC(=O)[C@H](Cc1c[nH]c2ccccc12)NC(=O)[C@H](C)NC(=O)[C@H](Cc1ccccc1)NC(=O)[C@H](CCCNC(=N)N)NC(=O)[C@H](CCCNC(=N)N)NC(=O)[C@@H](N)C(C)C)C(=O)N[C@@H](CCCNC(=N)N)C(=O)N[C@@H](CCCNC(=N)N)C(N)=O [Tritrp-P59A] (H-VRRFAWWWAFLRR-NH2)    32
CC(C)C[C@H](NC(=O)[C@H](Cc1ccccc1)NC(=O)[C@H](C)NC(=O)[C@H](Cc1c[nH]c2ccccc12)NC(=O)[C@H](Cc1c[nH]c2ccccc12)NC(=O)[C@H](Cc1c[nH]c2ccccc12)NC(=O)[C@@H]1CCCN1C(=O)[C@H](Cc1ccccc1)NC(=O)[C@H](CCCNC(=N)N)NC(=O)[C@H](CCCNC(=N)N)NC(=O)[C@@H](N)C(C)C)C(=O)N[C@@H](CCCNC(=N)N)C(=O)N[C@@H](CCCNC(=N)N)C(N)=O [Tritrp-P9A] (H-VRRFPWWWAFLRR-NH2)    16

As a next step, examine the molecule that follows.
[ask] Looking for the measured MBRC (CV at 595 nm) LD50 of CC(C)C[C@H](NC(=O)[C@H](Cc1ccccc1)NC(=O)[C@H](C)NC(=O)[C@H](Cc1c[nH]c2ccccc12)NC(=O)[C@H](Cc1c[nH]c2ccccc12)NC(=O)[C@H](Cc1c[nH]c2ccccc12)NC(=O)[C@@H]1CCCN1C(=O)[C@H](Cc1ccccc1)NC(=O)[C@H](CCCCN)NC(=O)[C@H](CCCCN)NC(=O)[C@@H](N)C(C)C)C(=O)N[C@@H](CCCCN)C(=O)N[C@@H](CCCCN)C(N)=O [Tritrp-P9A-Lys] (H-VKKFPWWWAFLKK-NH2) , can you help?
[reply] 32
